# TARGET_ENTITY: FGF2 (Homo sapiens, UniProt P09038 P09038:135-288)
# Sequence (P09038 135-288, one chain of several): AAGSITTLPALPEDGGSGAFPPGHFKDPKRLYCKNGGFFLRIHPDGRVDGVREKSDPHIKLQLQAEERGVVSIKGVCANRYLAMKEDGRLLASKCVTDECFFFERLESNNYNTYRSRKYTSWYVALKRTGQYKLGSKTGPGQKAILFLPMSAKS
# PROCEDURE_TEXT: inhibition; SPR inhibition of FGF2-FGFR1alpha(IIIc); each 0.1 uM
# CONDITION_SET: tags: Peprotech
Each entry gets false (0) if its activity stays under 90%, and true (1) if its activity is 90% or above.

Ask: Could you tell me if the measured activity of GGGAUACUAGGGCAUUAAUGUUACCAGUGUAGUCCC (ssRNA, all C and U 2'-F; 2'-OMe at A9; other purines 2'-OH) [aptamer ID 3(5)] reaches 90% or more?
Reply: false (0)

Ask: What do you have for GGAUACUAGGGCAUUAAUGUUACCAGUGUAGUCC (ssRNA, 2'-F at U7,G11,U15,U20,U27,U29; 2'-OH at G26,G28; all others 2'-OMe; PS between U27 and G28; 3' idT) [aptamer ID 4(3)] ?
Reply: true (1)

Ask: What about this binder? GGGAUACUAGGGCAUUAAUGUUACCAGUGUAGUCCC (ssRNA, 2'-OMe at G1,G2,G3,A4,A9,G10,G11,A14,A17,A18,G20,U22,A23,A26; other C and U 2'-F; other purines 2'-OH) [aptamer ID 3(14)]
Reply: false (0)

Ask: Similarly, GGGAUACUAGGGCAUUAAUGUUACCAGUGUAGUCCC (ssRNA, 2'-F at U8,U16,U21,U28,U30; 2'-OH at G12,G27,G29; all others 2'-OMe; 5' PEG 10K (ME-100TS)-C6; 3' idT) [aptamer ID 3(38)] ?
Reply: true (1)

Ask: Now consider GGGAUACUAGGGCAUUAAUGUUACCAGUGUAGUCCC (ssRNA, all C and U 2'-F; 2'-OMe at G11; other purines 2'-OH) [aptamer ID 3(3)] .
Reply: false (0)

Ask: # iterate: GGAUACUAGGGCAUUAAUGUUACCAGUGUAGUCC (ssRNA, 2'-F at U7,G11,U15,U20,G26,U27,U29; 2'-OH at G28; all others 2'-OMe; 3' idT) [aptamer ID 4(2)]
Reply: true (1)

Ask: Here is the next binder: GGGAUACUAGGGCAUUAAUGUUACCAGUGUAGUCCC (ssRNA, 2'-F at U8,U16,U21,U28,U30; 2'-OH at G12,G27,G29; all others 2'-OMe; 5' PEG 40K (GL2-400TS)-ssH; 3' idT) [aptamer ID 3(40)]
Reply: true (1)

Ask: Ok, now AGGGAUACUAGGGCAUUAAUGUUACCAGUGUAGUCCC (ssRNA, 2'-F at U9,U17,U22,U29,U31; 2'-OH at G13,G28,G30; all others 2'-OMe; 3' idT) [aptamer ID 6]
Reply: true (1)

Ask: Then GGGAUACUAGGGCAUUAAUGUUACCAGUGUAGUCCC (ssRNA, 2'-F at U8,U16,U21,U28,U30; 2'-OH at G12,G27,G29; all others 2'-OMe; 3' idT) [aptamer ID 3(19)] ?
Reply: true (1)

Ask: // repeat for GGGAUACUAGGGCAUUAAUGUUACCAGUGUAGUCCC (ssRNA, 2'-F at U8,U16,U21,U28,U30; 2'-OH at G12,G27,G29; all others 2'-OMe; 5' PEG 40K (GL2-400TS)-C6; 3' idT) [aptamer ID 3(21)] and report
Reply: true (1)

Ask: Try this binder too: GGAUACUAGGGCAUUAAUGUUACCAGUGUAGUCC (ssRNA, 2'-F at U7,G11,U15,U20,U27,U29; 2'-OH at G26,G28; all others 2'-OMe; 3' idT) [aptamer ID 4(1)]
Reply: true (1)

Ask: Now try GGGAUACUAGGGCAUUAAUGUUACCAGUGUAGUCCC (ssRNA, 2'-F at U8,U16,U21,U28,U30; 2'-OH at G12,G27,G29; all others 2'-OMe; 5' PEG 40K (Y-NHS-40K)-ssH; 3' idT) [aptamer ID 3(37)] .
Reply: true (1)

Ask: Again, but for GGAUACUAGGGCAUUAAUGUUACCAGUGUAGUCC (ssRNA, 2'-F at U7,U15,U20,U27,U29; 2'-OH at G11,G26,G28; all others 2'-OMe; 3' idT) [aptamer ID 4]
Reply: true (1)

Ask: Request: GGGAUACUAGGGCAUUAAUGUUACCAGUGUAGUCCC (ssRNA, 2'-OMe at G1,G2,G3,A4,A9,G10,G11,A14,A17,A18,G20,A23,C24,C25,A26; other C and U 2'-F; other purines 2'-OH) [aptamer ID 3(15)]
Reply: false (0)

Ask: Would you mind doing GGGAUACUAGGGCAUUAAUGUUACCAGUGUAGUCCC (ssRNA, 2'-F at U8,G12,U16,U21,G27,U28,U30; 2'-OH at G29; all others 2'-OMe; 3' idT) [aptamer ID 3(35)] as well?
Reply: false (0)
